src = patent US20210253718A1

Listed here: items and their measured median fluorescence.
Test Target: T1, FZD10 cysteine-rich domain (CRD), MYC-tagged and GPI-anchored on CHO cells (human, UniProt Q9ULW2 30-156, GPI anchor)
T1 construct: also called FZD10 CRD; CHO-myc-FZDGPI; not shown: MYC tag and GPI anchor signal
T1 sequence: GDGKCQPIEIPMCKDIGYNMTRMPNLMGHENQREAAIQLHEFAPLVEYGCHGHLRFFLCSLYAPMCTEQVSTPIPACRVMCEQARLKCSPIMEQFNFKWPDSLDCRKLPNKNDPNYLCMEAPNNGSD
Assay Text: flow cytometry, CHO-CRD cells;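 note: flow cytometry of Fab binding to CHO cells overexpressing a Frizzled CRD, with binding defined as median fluorescence over twice that of CHO cells lacking any Frizzled CRD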

# Binder, median fluorescence
rows = [
    ("Fab-2913 (Fab, V domains shown, Fab; also called Fv-2913) VH: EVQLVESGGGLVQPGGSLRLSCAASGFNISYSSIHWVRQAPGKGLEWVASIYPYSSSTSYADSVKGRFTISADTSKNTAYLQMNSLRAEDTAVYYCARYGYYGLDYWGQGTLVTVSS VL: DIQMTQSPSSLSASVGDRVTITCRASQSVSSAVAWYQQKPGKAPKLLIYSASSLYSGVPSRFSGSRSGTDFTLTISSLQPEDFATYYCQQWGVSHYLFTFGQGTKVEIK", 3.75),
    ("Fab-2932 (Fab, V domains shown, Fab; also called Fv-2932) VH: EVQLVESGGGLVQPGGSLRLSCAASGFNISYSYMHWVRQAPGKGLEWVASIYSSYSSTSYADSVKGRFTISADTSKNTAYLQMNSLRAEDTAVYYCARGALDYWGQGTLVTVSS VL: DIQMTQSPSSLSASVGDRVTITCRASQSVSSAVAWYQQKPGKAPKLLIYSASSLYSGVPSRFSGSRSGTDFTLTISSLQPEDFATYYCQQWYGSFALITFGQGTKVEIK", 3.82),
    ("Fab-2929 (Fab, V domains shown, Fab; also called Fv-2929) VH: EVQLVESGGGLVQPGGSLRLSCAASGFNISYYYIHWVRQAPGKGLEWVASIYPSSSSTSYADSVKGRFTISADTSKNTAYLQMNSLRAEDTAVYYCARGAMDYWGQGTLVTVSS VL: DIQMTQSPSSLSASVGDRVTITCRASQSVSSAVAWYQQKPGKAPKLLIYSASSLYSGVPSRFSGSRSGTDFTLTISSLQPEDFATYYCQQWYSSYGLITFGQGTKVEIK", 2.64),
    ("Fab-2904 (Fab, V domains shown, Fab; also called Fv-2904) VH: EVQLVESGGGLVQPGGSLRLSCAASGFNIYSYSMHWVRQAPGKGLEWVAYISSSYGYTSYADSVKGRFTISADTSKNTAYLQMNSLRAEDTAVYYCARSWYAWAMDYWGQGTLVTVSS VL: DIQMTQSPSSLSASVGDRVTITCRASQSVSSAVAWYQQKPGKAPKLLIYSASSLYSGVPSRFSGSRSGTDFTLTISSLQPEDFATYYCQQSSYSLITFGQGTKVEIK", 3.43),
    ("Fab-2915 (Fab, V domains shown, Fab; also called Fv-2915) VH: EVQLVESGGGLVQPGGSLRLSCAASGFNIYYYSMHWVRQAPGKGLEWVASIYSSYGYTSYADSVKGRFTISADTSKNTAYLQMNSLRAEDTAVYYCARGYHYYPYYSGLDYWGQGTLVTVSS VL: DIQMTQSPSSLSASVGDRVTITCRASQSVSSAVAWYQQKPGKAPKLLIYSASSLYSGVPSRFSGSRSGTDFTLTISSLQPEDFATYYCQQAYYHSLITFGQGTKVEIK", 3.92),
    ("Fab-2933 (Fab, V domains shown, Fab; also called Fv-2933) VH: EVQLVESGGGLVQPGGSLRLSCAASGFNLYSSYMHWVRQAPGKGLEWVASIYSSYGYTSYADSVKGRFTISADTSKNTAYLQMNSLRAEDTAVYYCARTVRGSKKPYFSGWAMDYWGQGTLVTVSS VL: DIQMTQSPSSLSASVGDRVTITCRASQSVSSAVAWYQQKPGKAPKLLIYSASSLYSGVPSRFSGSRSGTDFTLTISSLQPEDFATYYCQQFWWYASWLFTFGQGTKVEIK", 21.1),
    ("Fab-2906 (Fab, V domains shown, Fab; also called Fv-2906) VH: EVQLVESGGGLVQPGGSLRLSCAASGFNFSSSSIHWVRQAPGKGLEWVAYISSSYGYTYYADSVKGRFTISADTSKNTAYLQMNSLRAEDTAVYYCARTVRGSKKPYFSGWAMDYWGQGTLVTVSS VL: DIQMTQSPSSLSASVGDRVTITCRASQSVSSAVAWYQQKPGKAPKLLIYSASSLYSGVPSRFSGSRSGTDFTLTISSLQPEDFATYYCQQWSWGFLITFGQGTKVEIK", 19.8),
    ("Fab-2919 (Fab, V domains shown, Fab) VH: EVQLVESGGGLVQPGGSLRLSCAASGFNISYSYIHWVRQAPGKGLEWVASIYSSSGSTSYADSVKGRFTISADTSKNTAYLQMNSLRAEDTAVYYCARGAIDYWGQGTLVTVSS VL: DIQMTQSPSSLSASVGDRVTITCRASQSVSSAVAWYQQKPGKAPKLLIYSASSLYSGVPSRFSGSRSGTDFTLTISSLQPEDFATYYCQQWYSSGHVLITFGQGTKVEIK", 2.48),
]
